# measurement.notes: soluble on expression in E. coli; label from the status in PepcDB or PDB records
measured.property: soluble on expression in E. coli

MQFVWEAERTKAKVNAMLCLKRQAVANPLFGKGRLKIFSDDLLFIEQIPQTADNPTDKLLQFRVDFLLFPRKANKSRKNIKNVKKLRTNSLISCNYM	not soluble
MGSDKIHHHHHHMRIDIDAFNVLQVLVEEGSFAKASERLHKAQSAVSYQVKKLEQHLGVTLFNRDHYRAELTPEGKVILAEGQRLLQHLANIEHLASRFSQGWEPKLELVIDGALPMEPIMTALKRMSEHNIPTKVQLNMEFLGGVQHRFERDQADLMLVKDYRTGPSYHPKPLPTITSVLVASSQHPLSLLKEISLPELQQHVELTIEDSSPGKRDRDEMQFGGDKVFYLSGFIMKKNALLKGLGFGWMPDFLIAEELHQRQLIEVDFIGGNRFSFTPQLVSTLERPLGRAGQLFTELILEEFAQYQLQHQSGLSGAGLG	not soluble

The reported numbers originate from the DeepSol protein solubility set.
